# Tested on: PC-3
# protocol_text: Antiproliferative activity against AR-deficient human PC3 cells assessed as reduction in cell proliferation at 0.1 uM measured after 3 days by MTS assay relative to control
# Type: functional
# Design: scale not given: the % may be the effect or the level left
assay_readout: Activity (%)
Give bare numbers, in %.

Worked cases, answers included:
CC1CN(S(=O)(=O)c2ccccc2C(F)(F)F)C(C)CN1C(=O)c1ccc2c(c1)CC[C@@H]1[C@@H]2CC[C@]2(C)C(=O)CC[C@@H]12 (some centres not stated) :: 7
CC1CN(S(=O)(=O)c2ccccc2C(F)(F)F)C(C)CN1Cc1cc2c(cc1O)CC[C@@H]1[C@@H]2CC[C@]2(C)C(=O)CC[C@@H]12 (some centres not stated) :: 4
CC1CN(S(=O)(=O)c2ccccc2C(F)(F)F)C(C)CN1C[C@@]1(O)CC[C@@]2(C)[C@@H](CC[C@@H]3[C@@H]2CC[C@]2(C)C(=O)CC[C@@H]32)C1 (some centres not stated) :: 9
CC1CN(S(=O)(=O)c2ccccc2C(F)(F)F)C(C)CN1CCc1ccc2c(c1)CC[C@@H]1[C@@H]2CC[C@]2(C)C(=O)CC[C@@H]12 (some centres not stated) :: 1
CC1CN(S(=O)(=O)c2ccccc2C(F)(F)F)C(C)CN1C[C@@]1(O)CC[C@@]2(C)[C@@H](CC[C@@H]3[C@@H]2CC[C@]2(C)/C(=N/O)CC[C@@H]32)C1 (some centres not stated) :: 10

Lab note: each molecule below needs its Activity filled in.
1. CC1CN(S(=O)(=O)c2ccccc2C(F)(F)F)C(C)CN1CC(O)c1ccc2c(c1)CC[C@@H]1[C@@H]2CC[C@]2(C)C(=O)CC[C@@H]12 (single isomer, unassigned; diastereomer B)
2. C#C[C@]1(O)CC[C@H]2[C@@H]3CCc4cc(OC)c(N5CCN(C(=O)[C@@H]6CCCN6C(=O)c6ccc7ccccc7n6)CC5)cc4[C@H]3CC[C@@]21C

[8, 3]

====

# protocol_text: Plasma concentration in mouse at 25 mg/kg, sc administered as single dose measured after 3 hrs by LC-MS/MS analysis
# Format: ADME, organism-based
For each entry below, report its concentration at 3 h value.
Give bare numbers, in ng/mL.

Consider the worked cases shown below.
CC1CN(S(=O)(=O)c2ccccc2C(F)(F)F)C(C)CN1C[C@@]1(O)CC[C@@]2(C)[C@@H](CC[C@@H]3[C@@H]2CC[C@]2(C)C(=O)CC[C@@H]32)C1 (stereo partly drawn) :: 27.7
CC1CN(S(=O)(=O)c2ccccc2C(F)(F)F)C(C)CN1C[C@@]1(O)CC[C@@]2(C)[C@@H](CC[C@@H]3[C@@H]2CC[C@]2(C)/C(=N/O)CC[C@@H]32)C1 (stereo partly drawn) :: 94.7

Noted for CC1CN(S(=O)(=O)c2ccccc2C(F)(F)F)C(C)CN1C(=O)c1ccc2c(c1)CC[C@@H]1[C@@H]2CC[C@]2(C)C(=O)CC[C@@H]12 (stereo partly drawn) : its concentration at 3 h reads 108

====

Hi there, I'd appreciate the recorded concentration at 3 h for every entry that follows.
# protocol_text: Plasma concentration in mouse at 25 mg/kg, sc administered as single dose measured after 3 hrs by LC-MS/MS analysis
# Type: ADME, organism-based
Numbers only, in ng/mL.

These solved cases illustrate the format of a correct answer.
CC1CN(S(=O)(=O)c2ccccc2C(F)(F)F)C(C)CN1CCc1ccc2c(c1)CC[C@@H]1[C@@H]2CC[C@]2(C)C(=O)CC[C@@H]12 (stereo partly drawn) :: 51.6
CC1CN(S(=O)(=O)c2ccccc2C(F)(F)F)C(C)CN1Cc1cc2c(cc1O)CC[C@@H]1[C@@H]2CC[C@]2(C)C(=O)CC[C@@H]12 (stereo partly drawn) :: 89.3

Now consider the entry below.
Reported concentration at 3 h ( CC1CN(S(=O)(=O)c2ccccc2C(F)(F)F)C(C)CN1CC(O)c1ccc2c(c1)CC[C@@H]1[C@@H]2CC[C@]2(C)C(=O)CC[C@@H]12 (single isomer, unassigned; diastereomer B) ) = 48.7

====

# test_system: 17-beta-hydroxysteroid dehydrogenase type 3 (Homo sapiens) (UniProt P37058)
# Sequence (P37058 whole entry): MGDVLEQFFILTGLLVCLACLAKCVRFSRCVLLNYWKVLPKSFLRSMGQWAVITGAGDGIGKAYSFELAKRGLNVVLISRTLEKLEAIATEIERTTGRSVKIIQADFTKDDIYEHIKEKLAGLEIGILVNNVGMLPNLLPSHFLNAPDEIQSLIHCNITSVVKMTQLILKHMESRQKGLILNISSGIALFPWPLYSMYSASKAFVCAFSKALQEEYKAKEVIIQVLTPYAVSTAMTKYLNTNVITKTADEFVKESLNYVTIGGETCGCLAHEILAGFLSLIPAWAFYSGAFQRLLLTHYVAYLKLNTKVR
# protocol_text: Inhibition of 17beta-HSD3 (unknown origin) expressed in human LNCAP cells assessed as reduction in [14C]-testosterone formation from [14C]-4-androstene-3,17-dione at 0.5 uM measured after 1 hr relative to control
# Assay type: cell-based
What inhibition was measured for each of the following?
Answers are plain numbers, in %.

CC1CN(S(=O)(=O)c2ccccc2C(F)(F)F)C(C)CN1Cc1cc2c(cc1O)CC[C@@H]1[C@@H]2CC[C@]2(C)C(=O)CC[C@@H]12 (stereo partly drawn) :: 76

State the recorded inhibition for every item in the following list.
1. C#C[C@]1(O)CC[C@H]2[C@@H]3CC[C@H]4C[C@@](O)(CN5CC(C)N(S(=O)(=O)c6ccccc6C(F)(F)F)CC5C)CC[C@]4(C)[C@H]3CC[C@@]21C (stereo partly drawn)
2. CC1CN(S(=O)(=O)c2ccccc2C(F)(F)F)C(C)CN1C[C@@]1(O)CC[C@@]2(C)[C@@H](CC[C@@H]3[C@@H]2CC[C@]2(C)[C@@H](O)[C@H](O)C[C@@H]32)C1 (stereo partly drawn)

30
48

====

# test_system: 17-beta-hydroxysteroid dehydrogenase type 3 (Homo sapiens)
# protocol_text: Inhibition of 17beta-HSD3 (unknown origin) expressed in human LNCAP cells assessed as reduction in [14C]-testosterone formation from [14C]-4-androstene-3,17-dione at 0.5 uM measured after 1 hr relative to control
# Assay type: cell-based
Could you please report measured inhibition for the items listed next?
Put down the number, then write its unit next to it.

Illustrative cases are given below, each with its answer.
CC1CN(S(=O)(=O)c2ccccc2C(F)(F)F)C(C)CN1C[C@@]1(O)CC[C@@]2(C)[C@@H](CC[C@@H]3[C@@H]2CC[C@]2(C)C(=O)[C@H](F)C[C@@H]32)C1 (some centres undefined) :: 75%
CC1CN(S(=O)(=O)c2ccccc2C(F)(F)F)C(C)CN1CC(O)c1ccc2c(c1)CC[C@@H]1[C@@H]2CC[C@]2(C)C(=O)CC[C@@H]12 (single isomer, unassigned; diastereomer B) :: 98%
CC1CN(S(=O)(=O)c2ccccc2C(F)(F)F)C(C)CN1C[C@@]1(O)CC[C@@]2(C)[C@@H](CC[C@@H]3[C@@H]2CC[C@]2(C)C(=O)[C@H](O)C[C@@H]32)C1 (some centres undefined) :: 60%

# evaluate next
The measured inhibition associated with CO[C@H]1CC[C@H]2[C@@H]3CC[C@H]4C[C@@](O)(CN5CC(C)N(S(=O)(=O)c6ccccc6C(F)(F)F)CC5C)CC[C@]4(C)[C@H]3CC[C@]12C (some centres undefined) reads 18%

====

# test_system: UniProt P37058
# protocol_text: Inhibition of 17beta-HSD3 (unknown origin) expressed in human LNCAP cells assessed as reduction in [14C]-testosterone formation from [14C]-4-androstene-3,17-dione at 0.5 uM measured after 1 hr relative to control
# Format: cell-based
assay_readout: inhibition (%)
One number for each entry, in %.

See these solved cases before continuing.
CC1CN(S(=O)(=O)c2ccccc2C(F)(F)F)C(C)CN1C[C@@]1(O)CC[C@@]2(C)[C@@H](CC[C@@H]3[C@@H]2CC[C@@]2(C)[C@H]3CC[C@@]23CO3)C1 (stereo partly specified) :: 10
CC1CN(S(=O)(=O)c2ccccc2C(F)(F)F)C(C)CN1CC(O)c1ccc2c(c1)CC[C@@H]1[C@@H]2CC[C@]2(C)C(=O)CC[C@@H]12 (single isomer, unassigned; diastereomer A) :: 95
CC(=O)[C@H]1CC[C@H]2[C@@H]3CC[C@H]4C[C@@](O)(CN5CC(C)N(S(=O)(=O)c6ccccc6C(F)(F)F)CC5C)CC[C@]4(C)[C@H]3CC[C@]12C (stereo partly specified) :: 30
CC1CN(S(=O)(=O)c2ccccc2C(F)(F)F)C(C)CN1C(=O)c1ccc2c(c1)CC[C@@H]1[C@@H]2CC[C@]2(C)C(=O)CC[C@@H]12 (stereo partly specified) :: 78
CC1CN(S(=O)(=O)c2ccccc2C(F)(F)F)C(C)CN1C[C@@]1(O)CC[C@@]2(C)[C@@H](CC[C@@H]3[C@@H]2CC[C@]2(C)[C@@H](O)CC[C@@H]32)C1 (stereo partly specified) :: 78
CC1CN(S(=O)(=O)c2ccccc2C(F)(F)F)C(C)CN1C[C@@]1(O)CC[C@@]2(C)[C@@H](CC[C@@H]3[C@@H]2CC[C@]2(C)[C@@H](O)[C@H](F)C[C@@H]32)C1 (stereo partly specified) :: 58
CC1CN(S(=O)(=O)c2ccccc2C(F)(F)F)C(C)CN1C[C@@]1(O)CC[C@@]2(C)[C@@H](CC[C@@H]3[C@@H]2CC[C@]2(C)C(=O)CC[C@@H]32)C1 (stereo partly specified) :: 96
CC1CN(S(=O)(=O)c2ccccc2C(F)(F)F)C(C)CN1CC(F)c1ccc2c(c1)CC[C@@H]1[C@@H]2CC[C@]2(C)C(=O)CC[C@@H]12 (mixture of isomers) :: 80

Respectfully, I request inhibition for each entry included below.
1. CC1CN(S(=O)(=O)c2ccccc2C(F)(F)F)C(C)CN1CCc1ccc2c(c1)CC[C@@H]1[C@@H]2CC[C@]2(C)C(=O)CC[C@@H]12 (stereo partly specified)
2. CC1CN(S(=O)(=O)c2ccccc2C(F)(F)F)C(C)CN1C[C@@]1(O)CC[C@@]2(C)[C@@H](CC[C@@H]3[C@@H]2CC[C@]2(C)/C(=N/O)CC[C@@H]32)C1 (stereo partly specified)

[60, 80]

The compound CC1CN(S(=O)(=O)c2ccccc2C(F)(F)F)C(C)CN1C[C@@]1(O)CC[C@H]2[C@@H](CC[C@@H]3[C@@H]2CC[C@]2(C)C(=O)CC[C@@H]32)C1 (stereo partly specified) on UniProt P37058: inhibition was 82

The origin of these recorded values is ChEMBL document CHEMBL4406803.
